Assay: yeast display, Sf9 membrane polyspecificity reagent, FACS + sequencing; frameworks hold sequencing errors
Assay endpoint: polyreactivity (PSR sort gate)

Reference set (4 entries):
Chain	polyreactivity (PSR sort gate)
QVQLVESGGGLVQAGGSHRLTCAASGITFTVNAMGWYRQAPRKERELVAAISNDGSTYYADSVKGRFTISRDYAKNTVYLQMNSLKPEDTAVYYCAADTWDDFGPYGYDYWGQGTQVTVSS	low polyreactivity
QVQLVESGGGLVQAGGSLRLSCAASGFTLGRYAMGWYRQAPGKEREFVAAISRGGGSTNYADSVKGRFTISRDNAKNTVYLQMNSLKPEDTAVYYCAADDHTSGYGYWGQGTQVTVSS	high polyreactivity
QVQLVETGGGLVQAGGSLRLSCAASGITFYEYALGWYRQAAGKERELVAAISTSGGNTYYAESVKGRFTISRDNAKTTVYLQMNSLKPEDTAVFYCAAQGTASSYSGGDYWGQGTQVTVSS	low polyreactivity
QVQLVESGGGLVQAGGSLRLSCAASGSIFYYYAMGWYRPAPGKERELVAAINSSGGNTYYADSVKGRFTISRDNAKNTVYLQMNSLKPEDTAVYYCAAASRSTNYNYWGQGTQVTVSS	high polyreactivity

Proceeding to the next sequence to report its polyreactivity (PSR sort gate).
Reported polyreactivity (PSR sort gate), sequence QVQLVESGGGLVQAGGSLRLSCAASGGIFSRYAIGWYRQAPGKEREFVAAISFSGASTYYADSVKGRFTISRDNAKNTVYLQMNSLKPEDTAVYYCAADRVWPYYQYDYWGQGTQVTVSS : ____
low polyreactivity

* * *

Assay: yeast display, Sf9 membrane polyspecificity reagent, FACS + sequencing; frameworks hold sequencing errors
Assay endpoint: polyreactivity (PSR sort gate)

Sample answers from the record:
Chain	Assay endpoint	Result
QVQLVESGGGLVQAGGSLRLSCAASGSIFWVNGMGWYRQAPGKERELVAAITWSGGSTYYADSVKGRFTISRDNAKNTVYLQMNSLKPEDTAVYYCAAYCQYYLWDGYGYWGQGTQVTVSS	polyreactivity (PSR sort gate)	low polyreactivity
QVQLVESGGGLVQAGGSLRLSCAASGSTFDDYAMGWYRPAPGKERELVAAISSDGSTNYADSVKGRFTISRDNAKNTVYLQMNSLKPEDTAVYYCAAESPWDWGYWFEALYDYWGQGTQVNVSS	polyreactivity (PSR sort gate)	high polyreactivity
QVQLVESGGGLVQAGGSLRLSCAASGSIFRAYAMGWYRQAPGKERELVAAISWGGGSTSYADSVKGRFTISRDNAKNTVYLQMNSLNPEDTAVYYCAARFIWPARYYSWGQGTQVTVSS	polyreactivity (PSR sort gate)	high polyreactivity
QVQLVESGGGLVQAGGSLRLSCAASGSIFANAMGWYRQAPGKEREVVAAISFSGGRTFYADSVKGRFTISRDNAKNTVYLQMNSLKPEDTAVYYCAKGKKSSRSGIYNYWGQGTQVTVSS	polyreactivity (PSR sort gate)	high polyreactivity

Next up:
For QVHLVESAGGLVQAGGSLRLSCAPSGSTFPLYVMGWYRQAPGKERELVAAIDWSGGSTYYADSVKGRFTISRDNAKNTVYLQMNRLKPEDSAVYYCNARYLRRGDYWGQGTQVTVSS , what is its reported polyreactivity (PSR sort gate)?
low polyreactivity

* * *

Assay: yeast display, Sf9 membrane polyspecificity reagent, FACS + sequencing; frameworks hold sequencing errors

Chain	polyreactivity (PSR sort gate)
QVQLVESGGGLVQAGGSLRLSCAASGFTFKYYAMGWYRQAPGKERELVAVISTRGTNTYYADSVKGRFTISRDNAKNTVYLQMNSLKPEDTAVYYCAAVLGGNSRLDYWGQGTQVTVSS	high polyreactivity
QVQLVESGGGLVQAGGSLRLSCAASGSIFRRYAMGWYRQAPGKERELVAAIDSSGGTSYADSVKGRFTISRDNAKNTVYLQMNILKPEDTAVYYCATSFSWKGRKYGYWGQGTQVTVSS	high polyreactivity
